Target: rat RXFP2 (Rattus norvegicus, UniProt F7EMH8)
Sequence (F7EMH8 20-737): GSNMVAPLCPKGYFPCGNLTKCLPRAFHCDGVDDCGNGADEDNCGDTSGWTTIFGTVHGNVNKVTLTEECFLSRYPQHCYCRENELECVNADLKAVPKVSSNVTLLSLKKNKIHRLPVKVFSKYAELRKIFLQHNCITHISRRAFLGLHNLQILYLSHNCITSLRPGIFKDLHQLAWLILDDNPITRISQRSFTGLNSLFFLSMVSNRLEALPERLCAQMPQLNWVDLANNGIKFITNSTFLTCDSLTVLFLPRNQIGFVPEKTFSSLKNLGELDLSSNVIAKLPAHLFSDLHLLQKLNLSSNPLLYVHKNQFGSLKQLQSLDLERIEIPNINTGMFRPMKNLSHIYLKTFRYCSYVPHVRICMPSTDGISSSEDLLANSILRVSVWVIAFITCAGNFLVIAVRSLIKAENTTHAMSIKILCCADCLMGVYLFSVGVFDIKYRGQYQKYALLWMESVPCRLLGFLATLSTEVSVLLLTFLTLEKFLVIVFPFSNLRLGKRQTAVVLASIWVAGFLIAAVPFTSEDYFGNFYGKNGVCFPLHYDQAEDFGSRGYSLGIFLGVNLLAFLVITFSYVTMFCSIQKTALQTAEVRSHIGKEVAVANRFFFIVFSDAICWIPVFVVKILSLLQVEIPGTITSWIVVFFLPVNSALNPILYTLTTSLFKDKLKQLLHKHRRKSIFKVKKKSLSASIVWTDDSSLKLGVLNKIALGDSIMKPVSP
Experiment: INSL3-stimulated CYP11B2 mRNA expression in H295R stably expressing rat RXFP2
Type: cell-based
Parameters: expressed in transfected cells
Conditions: INSL3 EC80 (3.5 nM), 48 h, qPCR; N = 2
Procedure: RXFP2 antagonists were added to H295R-rRXFP2 before addition of INSL3 EC80 (3.5 nM) for 48 h, whereupon the cells and supernatants were collected. CYP11B1 and CYP11B2 mRNA were determined by qPCR and the RXFP2 blocker potencies were calculated (Fig. 5a). Fifteen antibodies have IC50s < 50 nM, and three of the top antibodies (1F2, 4G6, and 2D4) were selected for evaluation in steroid hormone secretion assays by ELISA. Data entered as XY table, with x = [Inhibitor] […]
OBSERVED PROPERTY: IC50 (nM)
Answers are plain numbers, in nM.

Input line: Output measured IC50 for this item: 3G4: RXFP2 monoclonal antibody from hybridoma, recombinantly expressed in a rat IgG2b backbone (antibody, V domains shown) VH: QVQLKESGPGLVAPSQSLSITCTVSGFSLTSYGVSWVRQPPGKGLEWLGVIWGDGSTNYHSALISRLSISKDNSKSQVFLKLNSLQTDDTATYYCAKSLGYYAMDYWGQGTSVTVSS VL: DIQMTQSPASLSVSVGETVTITCRASENIYSNLVWYQQKQGKSPQLLVYAATNLAEGVPSRFSGSGSGTQYSLKINSLQSEDFGSYYCQHFWGPPWTFGGGTKLEIK
Output line: 0.2
